Target: Transient receptor potential cation channel subfamily V member 4 (Homo sapiens)
Assay: Antagonist activity at human TRPV4 expressed in BHK/AC9 cells assessed as inhibition of GSK634775-induced […] pre-incubated for 10 mins followed by agonist addition by Fluo-4-AM dye-based FLIPR assay
Type: cell-based
Mark Fulfilled only when IC50 stays strictly below 20 nM. Values equal to the cut-off are Not fulfilled.

Examples from the recorded data:
compound: N#Cc1ccc(S(=O)(=O)N2C[C@H](S(=O)(=O)c3ccc(Cl)cc3)[C@](O)(CO)C2)c(Cl)c1
class name: Fulfilled
//
compound: N#Cc1ccc(S(=O)(=O)[C@H]2CN(S(=O)(=O)c3ccc(Cl)cc3C#N)C[C@@]2(O)CO)cc1
class name: Fulfilled
//
compound: N#Cc1ccc(S(=O)(=O)N2C[C@H](S(=O)(=O)c3ccc(Cl)cc3)[C@](O)(CO)C2)cn1
class name: Not fulfilled
//
compound: N#Cc1ccc(S(=N)(=O)N2C[C@H](S(=O)(=O)c3ccc(Cl)cc3)[C@](O)(CO)C2)c(Cl)c1 (stereo not given in full)
class name: Not fulfilled
//
compound: N#Cc1ccc(S(=O)(=O)N2C[C@H](S(=O)(=O)c3ccc(Cl)cn3)[C@](O)(CN)C2)c(Cl)c1
class name: Fulfilled
//
compound: N#Cc1ccc(S(=O)(=O)N2C[C@H](S(=O)(=O)c3ccc(Cl)cn3)[C@@](O)(CN)C2)c(Cl)c1
class name: Fulfilled

Consider the compound `N#Cc1ccc(S(=O)(=O)[C@H]2CN(S(=O)(=O)c3ccc(Cl)cc3Cl)C[C@@]2(O)CO)cc1F` . Is its IC50 strictly less than 20 nM?
Fulfilled

# strict comparison: is reported IC50 < 20 nM? input = `N#Cc1ccc(S(=O)(=O)[C@H]2CN(S(=O)(=O)c3ccc(C#N)cc3Cl)C[C@@]2(O)CO)cc1`
Fulfilled

* * *

Target: Transient receptor potential cation channel subfamily V member 4 (Homo sapiens, UniProt Q9HBA0)
Sequence (Q9HBA0 whole entry): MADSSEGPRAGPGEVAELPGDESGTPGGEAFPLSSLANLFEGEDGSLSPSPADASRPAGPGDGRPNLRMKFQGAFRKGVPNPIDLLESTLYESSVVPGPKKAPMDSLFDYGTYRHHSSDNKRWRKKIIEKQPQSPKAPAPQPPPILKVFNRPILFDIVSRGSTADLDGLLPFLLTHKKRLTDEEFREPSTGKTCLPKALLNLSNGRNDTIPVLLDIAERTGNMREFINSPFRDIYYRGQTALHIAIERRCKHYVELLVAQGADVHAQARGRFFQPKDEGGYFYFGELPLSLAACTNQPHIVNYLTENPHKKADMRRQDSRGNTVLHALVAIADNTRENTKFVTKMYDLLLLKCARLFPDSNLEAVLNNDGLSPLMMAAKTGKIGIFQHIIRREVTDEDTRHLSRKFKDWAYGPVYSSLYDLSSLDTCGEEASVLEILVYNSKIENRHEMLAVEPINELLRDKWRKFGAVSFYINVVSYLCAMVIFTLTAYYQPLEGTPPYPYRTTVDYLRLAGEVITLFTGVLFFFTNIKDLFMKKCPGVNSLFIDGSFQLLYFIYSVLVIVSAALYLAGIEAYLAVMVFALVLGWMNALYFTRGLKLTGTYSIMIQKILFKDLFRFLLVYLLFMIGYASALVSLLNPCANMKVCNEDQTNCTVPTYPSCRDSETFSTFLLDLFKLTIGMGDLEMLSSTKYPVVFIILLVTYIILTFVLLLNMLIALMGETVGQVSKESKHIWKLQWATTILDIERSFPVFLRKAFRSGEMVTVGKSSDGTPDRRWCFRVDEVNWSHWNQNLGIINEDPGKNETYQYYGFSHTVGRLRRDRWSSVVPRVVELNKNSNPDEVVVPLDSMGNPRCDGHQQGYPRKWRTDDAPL
Assay: Antagonist activity at human TRPV4 expressed in HEK cells assessed as inhibition of GSK634775-induced Ca2+ influx by FLIPR assay
Type: cell-based
property name: IC50 (nM)
Answer in nM, number only, no unit symbol.

Which IC50 is reported for this compound? `O=C(NC1(c2ccccc2)CC1)c1c(CN2CCC(N3CCCCC3)CC2)c(-c2cccc(C(F)(F)F)c2)nc2cc(Br)ccc12`
50

* * *

Test: MRT in Sprague-Dawley rat at 1 mg/kg, iv or 2 mg/kg, po by LC/MS/MS analysis
Assay type: ADME, organism-based
Details: in vivo
property name: log10(MRT) (log10 of the value in h)
Each number you see is log10 of MRT, and the unit inside the log is h.

Consider the worked cases shown below.
structure smiles: N#Cc1ccc(S(=O)(=O)N2C[C@H](S(=O)(=O)c3ccc(Cl)cn3)[C@@](O)(CN)C2)c(Cl)c1
log10(MRT): 0.34
//
structure smiles: N#Cc1ccc(S(=O)(=O)N2C[C@H](S(=O)(=O)c3ccc(Cl)cc3)[C@](O)(CO)C2)c(C(F)(F)F)n1
log10(MRT): -0.70
//
structure smiles: N#Cc1ccc(S(=O)(=O)N2C[C@H](S(=O)(=O)c3ccc(Cl)cc3)[C@](O)(CN)C2)c(Cl)c1
log10(MRT): 0.76
//
structure smiles: N#Cc1ccc(S(=O)(=O)[C@H]2CN(S(=O)(=O)c3ccc(Cl)cc3Cl)C[C@@H]2O)cc1
log10(MRT): 0.30
//
structure smiles: N#Cc1ccc(S(=O)(=O)N2C[C@H](S(=O)(=O)c3ccc(Cl)cn3)[C@](O)(CO)C2)c(Cl)c1
log10(MRT): 0.15

What log10(MRT) value was documented for this molecule, `N#Cc1ccc(S(=O)(=O)[C@H]2CN(S(=O)(=O)c3ccc(C#N)cc3Cl)C[C@@]2(O)CO)cc1` ?
0.00

Entry `N#Cc1ccc(S(=O)(=O)[C@H]2CN(S(=O)(=O)c3ccc(Cl)cc3Cl)C[C@@]2(O)CO)cc1` : reported log10(MRT) = ?
0.23
